These entries and their values trace back to patent US20260083750A1.

- tested-system: KRAS G12C (amino acids 1-169) (Homo sapiens, UniProt P01116, G12C)
- Construct: made in house; host or cells: E. coli
- Sequence (P01116 with tags, fused parts or gaps isoform P01116-2 G12C): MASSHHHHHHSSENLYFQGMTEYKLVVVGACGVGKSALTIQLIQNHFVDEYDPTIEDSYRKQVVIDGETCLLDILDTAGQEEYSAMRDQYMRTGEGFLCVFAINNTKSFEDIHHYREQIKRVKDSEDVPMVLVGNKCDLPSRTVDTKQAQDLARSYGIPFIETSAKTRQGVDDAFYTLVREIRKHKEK
- assay-overview: SOS-catalyzed nucleotide exchange assay (Procedure B, BODIPY FL GDP displacement)
- Assay type: biochemical
- cond: Procedure B (Example Nos. 18, 21, 23, 33-34); 1 hour incubation, SOS1 + GMPPNP; read-out: KRAS G12C GNE IC50
endpoint: pIC50
One number for each entry, as −log10 of the molar value.

These solved cases illustrate the format of a correct answer.
What value of pIC50 has been recorded for this entry: N#Cc1c(N)sc2c(F)ccc(-c3c(Cl)cc4c(N5CCCOCC5)nc(OC[C@]5(CO)CC5(F)F)nc4c3F)c12 (single isomer, unassigned) [Ex. 33]
5.99

Please look up its pIC50: C[C@H]1CCOCCN1c1nc(OC[C@@]23CCCN2C[C@H](F)C3)nc2c(F)c(-c3ccc(F)c4sc(N)c(C#N)c34)ncc12 [compound 21]
7.68

Given the entry N#Cc1c(N)sc2c(F)cc(F)c(-c3ncc4c(N5CCCOCC5)nc(OC[C@@]56CCCN5C[C@H](F)C6)nc4c3F)c12 [Ex. 23] , report its measured pIC50.
7.48

Recorded pIC50 for N#Cc1c(N)sc2c(F)ccc(-c3c(C(F)(F)F)cc4c(N5CCCOCC5)nc(OC[C@@]56CCCN5C[C@H](F)C6)nc4c3F)c12 [Ex. 34] , please?
8.75

# ---- query molecule ----
Which pIC50 value belongs to N#Cc1c(N)sc2c(F)ccc(-c3c(Cl)cc4c(N5CCCOCC5)nc(OC[C@@]56CCCN5C[C@H](F)C6)nc4c3F)c12 (single isomer, unassigned) [Ex. 18] ?
8.55

###

- tested-system: KRAS-G12D (Homo sapiens, UniProt P01116, G12D)
- Construct: N-terminal biotin-acceptor peptide […]
- Sequence (P01116 with tags, fused parts or gaps isoform P01116-2 G12D): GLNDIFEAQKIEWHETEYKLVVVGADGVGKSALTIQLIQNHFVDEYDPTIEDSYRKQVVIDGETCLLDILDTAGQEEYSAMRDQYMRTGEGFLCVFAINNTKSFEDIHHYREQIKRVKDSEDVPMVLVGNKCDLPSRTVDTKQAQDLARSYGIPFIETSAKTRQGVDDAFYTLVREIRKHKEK
- assay-overview: SOS-catalyzed nucleotide exchange assay (Procedure A, TR-FRET)
- cond: 60 min preincubation, SOS + GTP, read-out: KRAS G12D GNE IC50
endpoint: IC50
Don't forget the unit after the value.

# input compound: CC(C)NC[C@@]1(COc2nc(N3CCCOCC3)c3cc(Cl)c(-c4ccc(F)c5sc(N)c(C#N)c45)c(F)c3n2)CC1(F)F [compound 26] ; wanted: its IC50
177 nM

Look up IC50 for this compound: N#Cc1c(N)sc2c(F)ccc(-c3c(C(F)(F)F)cc4c(N5CCCOCC5)nc(OC[C@@]56CCCN5C[C@H](F)C6)nc4c3F)c12 (single isomer, unassigned) [Ex. 35]
2.33 nM

// IC50 lookup, key: N#Cc1c(N)sc2c(F)ccc(-c3c(Cl)cc4c(N5C6COCC5C6)nc(OC[C@@]56CCCN5C[C@H](F)C6)nc4c3F)c12 [compound 47]
23.4 nM

Reported IC50 for C[C@H]1CCOCCN1c1nc(OC[C@@]23CCCN2C[C@H](F)C3)nc2c(F)c(-c3ccc(F)c4sc(N)c(C#N)c34)c(Cl)cc12 [Ex. 6] : what is it?
3.78 nM

Bench note: what IC50 did N#Cc1c(N)sc2c(F)ccc(-c3ncc4c(N5CCCOCC5)nc(OC[C@@]56CCCN5C[C@H](F)C6)nc4c3F)c12 [Ex. 20] show?
294 nM

Each compound below has a recorded value; state its IC50.
1. N#Cc1c(N)sc2c(F)ccc(-c3c(Cl)cc4c(N5CCOCC5)nc(OC[C@@]56CCCN5C[C@H](F)C6)nc4c3F)c12 [compound 48]
2. Cc1cc(N)nc(-c2c(Cl)cc3c(N4CCOCC(F)(F)C4)nc(OC[C@@]45CCCN4C[C@H](F)C5)nc3c2F)c1C(F)(F)F [compound 43]

70.9 nM
927 nM

Please state IC50 for every compound in the list that follows.
1. N#Cc1c(N)sc2c(F)ccc(-c3c(Br)cc4c(N5CCCOCC5)nc(OC[C@@]56CCCN5C[C@H](F)C6)nc4c3F)c12 [compound 37]
2. Cc1cc(N)nc(-c2c(F)cc3c(N4CC[C@@H]5[C@@H](C#N)[C@@H]5CC4)nc(OC[C@@]45CCCN4C[C@H](F)C5)nc3c2F)c1C(F)(F)F [Ex. 45]
3. CN(C)C[C@@]1(COc2nc(N3CCCOCC3)c3cc(Cl)c(-c4ccc(F)c5sc(N)c(C#N)c45)c(F)c3n2)CC1(F)F [Ex. 24]
4. CC1(NC[C@@]2(COc3nc(N4CCCOCC4)c4cc(Cl)c(-c5ccc(F)c6sc(N)c(C#N)c56)c(F)c4n3)CC2(F)F)CCC1 [compound 28]
5. CCC1CCOCCN1c1nc(OC[C@@]23CCCN2C[C@H](F)C3)nc2c(F)c(-c3ccc(F)c4sc(N)c(C#N)c34)c(Cl)cc12 (stereo partly drawn) [compound 14]
6. C[C@@H]1CCOCCN1c1nc(OC[C@@]23CCCN2C[C@H](F)C3)nc2c(F)c(-c3ccc(F)c4sc(N)c(C#N)c34)c(Cl)cc12 [compound 7]

1: 8.27 nM; 2: 4470 nM; 3: 51.8 nM; 4: 1850 nM; 5: 6.32 nM; 6: 9.18 nM

I would be grateful if you could provide IC50 for each of the following entries.
1. COCC1CCOCCN1c1nc(OC[C@@]23CCCN2C[C@H](F)C3)nc2c(F)c(-c3ccc(F)c4sc(N)c(C#N)c34)c(Cl)cc12 (stereo partly drawn) [compound 16]
2. C[C@H]1CCOCCN1c1nc(OC[C@@]23CCCN2C[C@H](F)C3)nc2c(F)c(-c3ccc(F)c4sc(N)c(C#N)c34)c(Cl)cc12 (single isomer, unassigned) [Ex. 19]
3. C[C@H]1CCOCCN1c1nc(OC[C@@]23CCCN2C[C@H](F)C3)nc2cc(-c3ccc(F)c4sc(N)c(C#N)c34)c(C(F)(F)F)nc12 [compound 50]
4. CN1CCC[C@H]1COc1nc(N2CCCOCC2)c2cc(Br)c(-c3ccc(F)c4sc(N)c(C#N)c34)c(F)c2n1 [compound 38]
5. C[C@H]1CCOCCN1c1nc(OC[C@]2(CN(C)C)CC2(F)F)nc2c(F)c(-c3ccc(F)c4sc(N)c(C#N)c34)ncc12 [compound 22]
6. N#Cc1c(N)sc2c(F)ccc(-c3c(C(F)(F)F)cc4c(N5C[C@H]6CC[C@H]6C5)nc(OC[C@@]56CCCN5C[C@H](F)C6)nc4c3F)c12 [compound 52]
7. N#Cc1c(N)sc2c(F)ccc(-c3c(Br)cc4c(N5C6COCC5C6)nc(OC[C@@]56CCCN5C[C@H](F)C6)nc4c3F)c12 [Ex. 36]
8. N#Cc1c(N)sc2c(F)ccc(-c3cc4nc(OC[C@@]56CCCN5C[C@H](F)C6)nc(N5CCCOCC5)c4nc3C(F)(F)F)c12 [Ex. 46]

25.2 nM
2.4 nM
30.5 nM
47.1 nM
253 nM
210 nM
9.34 nM
40.9 nM
